// provenance: a collection of fitness landscapes (doi:10.1016/j.celrep.2020.107928)

B1: Caulobacter ParB omega fusion; a variant is named by its letters at X, in order, B8GW30 (parent)
chain: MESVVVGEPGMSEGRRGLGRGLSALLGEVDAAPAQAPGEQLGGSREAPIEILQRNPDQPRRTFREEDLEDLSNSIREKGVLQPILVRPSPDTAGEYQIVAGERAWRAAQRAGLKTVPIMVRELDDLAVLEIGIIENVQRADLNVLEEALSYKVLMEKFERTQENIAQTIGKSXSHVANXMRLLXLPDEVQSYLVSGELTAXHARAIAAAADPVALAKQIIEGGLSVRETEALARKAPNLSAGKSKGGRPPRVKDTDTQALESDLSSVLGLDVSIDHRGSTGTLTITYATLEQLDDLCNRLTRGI

variants of: B1; assay: one-hybrid fitness for binding NBS DNA (the Noc-binding site; scaled: cognate 1, non-cognate 0); higher = stronger binding; settings: with NBS DNA site
The full ranking holds about 81,000 sequences; the median of “one-hybrid fitness for binding NBS DNA” is about -0.1, and the highest 2% start at about 0.36. For the sample, the highest values were picked, then their nearest neighbours and some sequences at random.
observed property: one-hybrid fitness for binding NBS DNA

IDPS    ≤ 0.2
CPAI    ≤ 0.2
RLSR    0.43
DKMS    ≤ 0.2

I would be grateful if you could provide one-hybrid fitness for binding NBS DNA for each of the following entries.
1. RITR
2. RATR
3. RLGN
4. VPLE
5. RSTR
6. QCGK

Response line:
[0.437, 0.43, "≤ 0.2", "≤ 0.2", 0.447, "≤ 0.2"]
